# TEST METHOD NOTES: Clearance in Sprague-Dawley rat at 2 mg/kg, iv
# Type: ADME, organism-based
# Set-up: dose 2 mg/kg, route intravenous
# MEASUREMENT CONTEXT: in vivo
ASSAY ENDPOINT: clearance (mL/min/kg)
Kindly answer with a numeric value in mL/min/kg, unit omitted.

The compound listed as "CC(=O)N[C@H]1[C@H]([C@H](O)[C@H](O)CO)OC(C(=O)NCc2cccc(F)c2)=C[C@@H]1NC(=N)N" shows clearance equal to 5.83

---

# TEST METHOD NOTES: Volume of distribution at steady state in Sprague-Dawley rat at 2 mg/kg, iv
# Format: ADME, organism-based
# Parameters: dose 2 mg/kg, route intravenous
# MEASUREMENT CONTEXT: in vivo, read-out: Vdss
ASSAY ENDPOINT: Vd (L/kg)
Kindly answer with a numeric value in L/kg, unit omitted.

The molecule listed as "CC(=O)N[C@H]1[C@H]([C@H](O)[C@H](O)CO)OC(C(=O)NCc2cccc(F)c2)=C[C@@H]1NC(=N)N" shows Vd equal to 0.23

---

# EXPERIMENTAL TARGET: Neuraminidase (Influenza A virus, UniProt B4URF0)
# Sequence (B4URF0 whole entry): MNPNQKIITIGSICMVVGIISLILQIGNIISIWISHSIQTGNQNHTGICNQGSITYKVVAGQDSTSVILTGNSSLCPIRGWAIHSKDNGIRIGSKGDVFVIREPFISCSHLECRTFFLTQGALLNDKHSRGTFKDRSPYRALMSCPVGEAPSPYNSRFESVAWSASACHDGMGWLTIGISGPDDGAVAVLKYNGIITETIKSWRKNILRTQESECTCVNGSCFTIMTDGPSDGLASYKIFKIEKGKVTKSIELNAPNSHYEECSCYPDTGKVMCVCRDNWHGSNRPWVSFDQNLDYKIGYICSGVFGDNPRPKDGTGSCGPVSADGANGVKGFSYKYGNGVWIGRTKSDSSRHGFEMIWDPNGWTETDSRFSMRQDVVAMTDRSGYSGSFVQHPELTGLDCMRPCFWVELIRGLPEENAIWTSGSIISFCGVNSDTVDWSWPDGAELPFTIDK
# TEST METHOD NOTES: Inhibition of Influenza A virus (A/Indonesia/5/2005(H5N1)) neuraminidase infected in chick embryo using MUNANA as substrate after 1 hr by spectrophotometric analysis
pIC50: −log10 of the molar value.
Would you please tag the item satisfied when its pIC50 is 5 or above, and not satisfied when it is below?

A selection of reference data follows.
CC(=O)N[C@H]1[C@H]([C@H](O)[C@H](O)CO)OC(C(=O)N[C@@H](CC(C)C)C(=O)O)=C[C@@H]1NC(=N)N    satisfied
COc1ccc(CNC(=O)C2=C[C@H](O)[C@@H](NC(C)=O)[C@H]([C@H](O)[C@H](O)CO)O2)cc1    not satisfied
CC(=O)N[C@H]1[C@H]([C@H](O)[C@H](O)CO)OC(C(=O)N[C@H](C(=O)O)C(C)C)=C[C@@H]1O    not satisfied
CC[C@H](C)[C@H](NC(=O)C1=C[C@H](O)[C@@H](NC(C)=O)[C@H]([C@H](O)[C@H](O)CO)O1)C(=O)O    not satisfied

Prompt line: Answer whether pIC50 of "CC(=O)N[C@H]1[C@H]([C@H](O)[C@H](O)CO)OC(C(=O)N2CCOCC2)=C[C@@H]1O" is greater than or equal to 5.
Response line: not satisfied

Prompt line: Answer whether pIC50 of "CC(=O)N[C@H]1[C@H]([C@H](O)[C@H](O)CO)OC(C(=O)NCc2cccc(F)c2)=C[C@@H]1NC(=N)N" is greater than or equal to 5.
Response line: satisfied

Prompt line: Answer whether pIC50 of "CC(=O)N[C@H]1[C@H]([C@H](O)[C@H](O)CO)OC(C(=O)NCc2ccccc2F)=C[C@@H]1NC(=N)N" is greater than or equal to 5.
Response line: satisfied

---

# EXPERIMENTAL TARGET: Neuraminidase (Influenza A virus, UniProt B4URF0)
# TEST METHOD NOTES: Inhibition of Influenza A virus H5N1 neuraminidase
ASSAY ENDPOINT: IC50 (nM)
Kindly answer with a numeric value in nM, unit omitted.

The compound listed as "CC(=O)N[C@H]1[C@H]([C@H](O)[C@H](O)CO)OC(C(=O)O)=C[C@@H]1O" shows IC50 equal to 12
